- protocolDescription: Antiproliferative activity against human IGROV1 cells assessed as reduction in cell number after 72 hrs by cell counter analysis
- Type: functional, cell-based
- cond: IGROV-1, 72 h
reportedMetric: IC50 (nM)
The figure you give is taken to be in nM; do not add the unit.

Known IC50 results, listed for orientation:
INSERT INTO assay_data (smilesstructure, unitstring, valuereported) VALUES
  ('COc1ccc(-c2ccc(/C=C/C(=O)NO)cc2)cc1', 'nM', 750),
  ('O=C(CCCCCCC(=O)Nc1ccccc1)NO', 'nM', 2200),
  ('CC(C)=C(c1ccccc1)c1ccc(/C=C/C(=O)NO)cc1', 'nM', 2500);

We now examine a further compound.
IC50 for `Cc1[nH]c2ccccc2c1/C=C/c1ccccc1-c1ccc(/C=C/C(=O)NO)cc1` ?
350

Data provenance: ChEMBL document CHEMBL3792283
